Test system: Größe der Pupille
ASSAY_SETUP: mouse, in vivo, po
Define the label as TRUE when Pupillomotorik ED3-fach is strictly less than 70 mg/kg and as FALSE in all remaining cases.

Check out these entries, answers already filled in.
> print(dat)
                            chemical.smiles     assayed.system    cat
1  CN1C(=O)c2ccccc2N(C(=O)CN2CCN(C(=O)c3ccco3)CC2)c2ccc(Cl)cc21  Größe der Pupille  FALSE
2  CN1C(=O)c2ccccc2N(C(=O)CN(CCO)CCO)c2ccccc21  Größe der Pupille  FALSE
3  O=C1Nc2ccccc2N(C(=O)CN(CCO)CCO)c2ccccc21  Größe der Pupille   TRUE

Problem: # strict comparison: is reported Pupillomotorik ED3-fach < 70 mg/kg? input = O=C1Nc2ccccc2N(C(=O)CN2CCN(C(=O)c3ccco3)CC2)c2ccccc21
Solution: TRUE

Problem: Now consider O=C1Nc2cc(Cl)ccc2N(C(=O)CN(CCO)CCO)c2ccccc21 and answer again.
Solution: TRUE

###

TEST_NAME: in vivo
ASSAY_SETUP: mouse, male and female mice, oral, read-out: akute Toxizität LD50
ATTRIBUTE_MEASURED: LD50 (mg/kg)
One number for each entry, in mg/kg.

Below are worked cases with known answers.
> print(dat)
                                   compound  attribute.measured  data.value
1  O=C1Nc2ccccc2N(C(=O)CN(CCO)CCO)c2ccccc21 [B]                LD50        2000
2  O=C1Nc2ccccc2N(C(=O)CN2CCN(C(=O)c3ccco3)CC2)c2ccccc21 [C]                LD50        2000
3  CN1C(=O)c2ccccc2N(C(=O)CN(CCO)CCO)c2ccccc21 [E]                LD50        1000
4  O=C1Nc2cc(Cl)ccc2N(C(=O)CN(CCO)CCO)c2ccccc21 [A]                LD50        2000

Let's switch to this compound now.
Problem: Using the record for CN1C(=O)c2ccccc2N(C(=O)CN2CCN(C(=O)c3ccco3)CC2)c2ccc(Cl)cc21 [D] , report its LD50.
Solution: 1600
